Entry source: patent US20210115124A1

target.system: T1, human VEGF (hVEGF) (human, UniProt P15692 181-395);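 also: fab variants injected over immobilized hVEGF on a CM5 chip, rate constants fitted with a one-to-one Langmuir model, Kd derived as koff over kon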
T1 construct: also called VEGF-A
T1 sequence: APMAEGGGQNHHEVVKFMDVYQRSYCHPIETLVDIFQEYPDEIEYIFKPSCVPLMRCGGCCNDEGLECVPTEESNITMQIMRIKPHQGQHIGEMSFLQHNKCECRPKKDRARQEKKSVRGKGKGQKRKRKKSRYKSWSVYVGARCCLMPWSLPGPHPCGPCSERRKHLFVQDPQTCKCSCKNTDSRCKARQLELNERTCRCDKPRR
assay.summary: SPR
# pKd per record follows
pKd is a log-scale quantity: -log10 of the concentration expressed in molar.

{"binder": "R19HCLC5 (Fab, V domains shown, Fab) VH: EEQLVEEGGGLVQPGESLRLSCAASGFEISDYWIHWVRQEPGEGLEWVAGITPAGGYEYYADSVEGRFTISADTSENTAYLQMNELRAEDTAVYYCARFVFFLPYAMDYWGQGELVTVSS VL: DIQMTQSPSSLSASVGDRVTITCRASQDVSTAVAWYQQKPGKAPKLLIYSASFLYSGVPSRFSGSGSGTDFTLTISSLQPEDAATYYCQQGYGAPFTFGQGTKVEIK", "result": 10.20}
{"binder": "HCLC1 (Fab, V domains shown, Fab) VH: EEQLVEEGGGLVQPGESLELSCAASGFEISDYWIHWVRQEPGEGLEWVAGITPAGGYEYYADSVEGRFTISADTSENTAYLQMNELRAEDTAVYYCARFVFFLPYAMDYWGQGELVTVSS VL: DIQMTQSPESLSASVGDEVTITCRASQDVSTAVAWYQQKPGKAPKLLIYSASFLYSGVPSRFSGSGSGTDFTLTISSLQPEDAATYYCQQGYGAPFTFGQGTKVEIK", "result": 9.35}
{"binder": "HCLC4 (Fab, V domains shown, Fab) VH: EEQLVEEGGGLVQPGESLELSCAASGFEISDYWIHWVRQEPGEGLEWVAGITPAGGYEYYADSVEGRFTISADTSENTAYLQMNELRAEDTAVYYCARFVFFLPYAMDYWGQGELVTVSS VL: DIQMTQSPSSLSASVGDEVTITCRASQDVSTAVAWYQQKPGKAPKLLIYSASFLYSGVPSRFSGSGSGTDFTLTISSLQPEDAATYYCQQGYGAPFTFGQGTKVEIK", "result": 9.52}
{"binder": "HCLC2 (Fab, V domains shown, Fab) VH: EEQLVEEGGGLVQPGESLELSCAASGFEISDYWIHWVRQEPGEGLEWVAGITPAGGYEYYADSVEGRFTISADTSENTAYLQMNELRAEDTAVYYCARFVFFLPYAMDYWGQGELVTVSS VL: DIQMTQSPSSLSASVGDEVTITCRASQDVSTAVAWYQQKPGEAPKLLIYSASFLYSGVPSRFSGSGSGTDFTLTIESLQPEDAATYYCQQGYGAPFTFGQGTKVEIK", "result": 9.53}

IN: Returns the measured pKd for the input binder. Input: LCcombo4 (G6.31 WT VH with LCcombo4 VL) (Fab, V domains shown, Fab) VH: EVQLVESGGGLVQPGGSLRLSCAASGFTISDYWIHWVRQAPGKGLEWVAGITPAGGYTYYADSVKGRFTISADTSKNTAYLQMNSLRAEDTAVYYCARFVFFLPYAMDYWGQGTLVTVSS VL: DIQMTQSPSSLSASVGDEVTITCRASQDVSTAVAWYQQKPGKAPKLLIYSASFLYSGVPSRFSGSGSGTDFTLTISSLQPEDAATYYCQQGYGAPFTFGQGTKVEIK
OUT: 8.76
